Test system: NCI-H835 (Other Solid Carcinomas)
Experiment: Bliss excess, mean over the matrix (fraction); higher = more synergy
Parameter measured: Bliss excess

Compound	Assay value
N#Cc1cnc(Nc2cc(NC[C@H]3CNCCO3)c(C(F)(F)F)cn2)cn1 [SRA737] + Nc1ccn([C@@H]2O[C@H](CO)[C@@H](O)C2(F)F)c(=O)n1 [Gemcitabine] (first compound max 10 µM, 7x7, partner max 0.3 µM)	-0.0363
O=C(c1cc(Cc2n[nH]c(=O)c3ccccc23)ccc1F)N1CCN(C(=O)C2CC2)CC1 [Olaparib] + Cc1c2c(nn1C)CSCc1cc(n(C)n1)CSc1cc(c3ccccc3c1)OCCCc1c(C(=O)O)n(C)c3c-2c(Cl)ccc13 [AZD5991] (first compound max 10 µM, 7x7, partner max 1 µM)	-0.0467

----------
Test system: C2BBe1 (Colorectal Carcinoma)
Experiment: Bliss excess, mean over the matrix (fraction); higher = more synergy
A collection of compounds and their measured Bliss excess

Compound	Bliss excess
Cn1cnc2c(F)c(Nc3ccc(Br)cc3Cl)c(C(=O)NOCCO)cc21 [Selumetinib] + CCN(CCO)CCCOc1ccc2c(Nc3cc(CC(=O)Nc4cccc(F)c4)[nH]n3)ncnc2c1 [AZD2811] (first compound max 10 µM, 7x7, partner max 1 µM)	-0.0439
NC1(C(=O)N[C@@H](CCO)c2ccc(Cl)cc2)CCN(c2ncnc3[nH]ccc23)CC1 [Capivasertib] + Cn1cnc2c(F)c(Nc3ccc(Br)cc3Cl)c(C(=O)NOCCO)cc21 [Selumetinib] (first compound max 10 µM, 7x7, partner max 10 µM)	-0.0036
CCc1c2c(nc3ccc(O)cc13)-c1cc3c(c(=O)n1C2)COC(=O)[C@]3(O)CC [SN-38] + CN(C)CCCOc1ccc(-c2ccc3ncc4c(c3c2)n(C2CCOCC2)c(=O)n4C)cn1 [AZD0156] (first compound max 0.3 µM, 7x7, partner max 1 µM)	-0.0179
C[C@@H]1COCCN1c1cc(C2([S@](C)(=N)=O)CC2)nc(-c2ccnc3[nH]ccc23)n1 [AZD6738] + O=C(c1cc(Cc2n[nH]c(=O)c3ccccc23)ccc1F)N1CCN(C(=O)C2CC2)CC1 [Olaparib] (first compound max 10 µM, 7x7, partner max 10 µM)	0.0009
COc1cccc(OCCCN)c1-c1cc(Nc2cnc(C#N)cn2)n[nH]1 [Prexasertib] + CCc1c2c(nc3ccc(O)cc13)-c1cc3c(c(=O)n1C2)COC(=O)[C@]3(O)CC [SN-38] (first compound max 1 µM, 7x7, partner max 0.3 µM)	-0.0103
CN(CCO)CC[C@H](CSc1ccccc1)Nc1ccc(S(=O)(=O)NC(=O)c2ccc(N3CCC([C@@H](O)c4ccccc4-c4ccc(Cl)cc4)CC3)cc2)cc1S(=O)(=O)C(F)(F)F [AZD4320] + C[C@@H]1COCCN1C2=NC(=NC(=C2)C3(CC3)[S@](=N)(=O)C)C4=C5C=CNC5=NC=C4 [AZD6738] (first compound max 1 µM, 7x7, partner max 10 µM)	-0.14

----------
A collection of compounds and their measured Bliss excess
Test system: C32 (Melanoma)
Experiment: Bliss excess, mean over the matrix (fraction); higher = more synergy
Parameter measured: Bliss excess

Compound	Assay value
CC(=O)Nc1cccc(-n2c(=O)n(C3CC3)c(=O)c3c(Nc4ccc(I)cc4F)n(C)c(=O)c(C)c32)c1 [Trametinib] + Cc1nc(-c2cn3c(n2)-c2ccc(-c4cnn(C(C)(C)C(N)=O)c4)cc2OCC3)n(C(C)C)n1 [Taselisib] (first compound max 1 µM, 7x7, partner max 10 µM)	0.0958
CN(CCO)CC[C@H](CSc1ccccc1)Nc1ccc(S(=O)(=O)NC(=O)c2ccc(N3CCC([C@@H](O)c4ccccc4-c4ccc(Cl)cc4)CC3)cc2)cc1S(=O)(=O)C(F)(F)F [AZD4320] + C[C@@H]1COCCN1C2=NC(=NC(=C2)C3(CC3)[S@](=N)(=O)C)C4=C5C=CNC5=NC=C4 [AZD6738] (first compound max 1 µM, 7x7, partner max 10 µM)	0.0653

----------
Tested on: HT-3 (Cervical Carcinoma)
Experiment: combination Emax (second highest fraction inhibited in the dose matrix, 72 h); higher = more inhibition; extreme values may be limits of the assay
A collection of compounds and their measured combination Emax

Compound	combination Emax
NC1(C(=O)N[C@@H](CCO)c2ccc(Cl)cc2)CCN(c2ncnc3[nH]ccc23)CC1 [Capivasertib] + C[C@@H]1COCCN1C2=NC(=NC(=C2)C3(CC3)[S@](=N)(=O)C)C4=C5C=CNC5=NC=C4 [AZD6738] (first compound max 10 µM, 7x7, partner max 10 µM)	0.575
Cn1cnc2c(F)c(Nc3ccc(Br)cc3Cl)c(C(=O)NOCCO)cc21 [Selumetinib] + C[C@@H]1COCCN1C2=NC(=NC(=C2)C3(CC3)[S@](=N)(=O)C)C4=C5C=CNC5=NC=C4 [AZD6738] (first compound max 10 µM, 7x7, partner max 10 µM)	0.54
CC1(C)CCC(CN2CCN(c3ccc(C(=O)NS(=O)(=O)c4ccc(NCC5CCOCC5)c([N+](=O)[O-])c4)c(Oc4cnc5[nH]ccc5c4)c3)CC2)=C(c2ccc(Cl)cc2)C1 [Venetoclax] + C[C@@H](Nc1cc(F)cc(F)c1)c1cc(C(=O)N(C)C)cc2c(=O)cc(N3CCOCC3)oc12 [AZD8186] (first compound max 1 µM, 7x7, partner max 3 µM)	0.0586

----------
A collection of molecules and their measured Bliss excess
Tested on: Daudi (Burkitt's Lymphoma)
Experiment: Bliss excess, mean over the matrix (fraction); higher = more synergy

Molecule	Bliss excess
CC1(C)CCC(CN2CCN(c3ccc(C(=O)NS(=O)(=O)c4ccc(NCC5CCOCC5)c([N+](=O)[O-])c4)c(Oc4cnc5[nH]ccc5c4)c3)CC2)=C(c2ccc(Cl)cc2)C1 [Venetoclax] + Cn1cnc2c(F)c(Nc3ccc(Br)cc3Cl)c(C(=O)NOCCO)cc21 [Selumetinib] (first compound max 1 µM, 7x7, partner max 3 µM)	-0.0208
CC1(C)CCC(CN2CCN(c3ccc(C(=O)NS(=O)(=O)c4ccc(NCC5CCOCC5)c([N+](=O)[O-])c4)c(Oc4cnc5[nH]ccc5c4)c3)CC2)=C(c2ccc(Cl)cc2)C1 [Venetoclax] + CCN(CCO)CCCOc1ccc2c(Nc3cc(CC(=O)Nc4cccc(F)c4)[nH]n3)ncnc2c1 [AZD2811] (first compound max 1 µM, 7x7, partner max 1 µM)	0.005
Cc1c2c(nn1C)CSCc1cc(n(C)n1)CSc1cc(c3ccccc3c1)OCCCc1c(C(=O)O)n(C)c3c-2c(Cl)ccc13 [AZD5991] + C=CCn1c(=O)c2cnc(Nc3ccc(N4CCN(C)CC4)cc3)nc2n1-c1cccc(C(C)(C)O)n1 [AZD1775] (first compound max 1 µM, partner max 1 µM)	-0.0124
COc1cc2c(cc1OCCCCCOc1cc3c(cc1OC)C(=O)N1C=C(C)C[C@H]1C=N3)N=C[C@@H]1CC(C)=CN1C2=O [SG3199] + O=C(c1cc(Cc2n[nH]c(=O)c3ccccc23)ccc1F)N1CCN(C(=O)C2CC2)CC1 [Olaparib] (first compound max 0.001 µM, 7x7, partner max 10 µM)	-0.0273
Cc1cc2ncnn2cc1Nc1ncc2c(n1)n(C1CCOCC1)c(=O)n2C [AZD7648] + C=CCn1c(=O)c2cnc(Nc3ccc(N4CCN(C)CC4)cc3)nc2n1-c1cccc(C(C)(C)O)n1 [AZD1775] (first compound max 10 µM, partner max 1 µM)	-0.0101

----------
System: SCC90 (Head and Neck Carcinoma)
Experiment: Bliss excess, mean over the matrix (fraction); higher = more synergy

Molecule	Bliss excess
Cn1cnc2c(F)c(Nc3ccc(Br)cc3Cl)c(C(=O)NOCCO)cc21 [Selumetinib] + CC(C)n1c(=O)n(C)c2cnc3cc(F)c(-c4ccc(OCCCN5CCCCC5)nc4)cc3c21 [AZD1390] (first compound max 10 µM, 7x7, partner max 0.3 µM)	0.0124
COc1nnc2ccc(N3CCC(c4ccc(OCCN5CCN(C)C(=O)[C@H]5C)cc4)CC3)nn12 [AZD5153] + Cn1cnc2c(F)c(Nc3ccc(Br)cc3Cl)c(C(=O)NOCCO)cc21 [Selumetinib] (first compound max 1 µM, 7x7, partner max 10 µM)	0.098

----------
A collection of compounds and their measured combination Emax
Test system: OVKATE (Ovarian Carcinoma)
Experiment: combination Emax (second highest fraction inhibited in the dose matrix, 72 h); higher = more inhibition; extreme values may be limits of the assay
Parameter measured: combination Emax

Compound	Parameter measured	Assay value
Cc1cc2ncnn2cc1Nc1ncc2c(n1)n(C1CCOCC1)c(=O)n2C [AZD7648] + CCN(CCO)CCCOc1ccc2c(Nc3cc(CC(=O)Nc4cccc(F)c4)[nH]n3)ncnc2c1 [AZD2811] (first compound max 10 µM, 7x7, partner max 1 µM)	combination Emax	0.27
COc1cc2c(cc1OCCCCCOc1cc3c(cc1OC)C(=O)N1C=C(C)C[C@H]1C=N3)N=C[C@@H]1CC(C)=CN1C2=O [SG3199] + O=C(c1cc(Cc2n[nH]c(=O)c3ccccc23)ccc1F)N1CCN(C(=O)C2CC2)CC1 [Olaparib] (first compound max 0.001 µM, 7x7, partner max 10 µM)	combination Emax	0.0519
CC(=O)Nc1cccc(-n2c(=O)n(C3CC3)c(=O)c3c(Nc4ccc(I)cc4F)n(C)c(=O)c(C)c32)c1 [Trametinib] + Cc1nc(-c2cn3c(n2)-c2ccc(-c4cnn(C(C)(C)C(N)=O)c4)cc2OCC3)n(C(C)C)n1 [Taselisib] (first compound max 1 µM, 7x7, partner max 10 µM)	combination Emax	0.583
Cc1cc2ncnn2cc1Nc1ncc2c(n1)n(C1CCOCC1)c(=O)n2C [AZD7648] + C[C@@H]1COCCN1C2=NC(=NC(=C2)C3(CC3)[S@](=N)(=O)C)C4=C5C=CNC5=NC=C4 [AZD6738] (first compound max 10 µM, 7x7, partner max 10 µM)	combination Emax	0.377
